assay.protocol: Parent chemical in rat plasma, 14-day study
Format: in vivo
measurement.context: Sprague-Dawley, rat, plasma, oral; female, Day 15, 100 mg/kg-day
experimental.readout: concentration at 15 day (ng/mL)
Dear colleague, please return just the value in ng/mL, with no unit written.

Input line: Provide measured concentration at 15 day value, entry: O=C(O)C(F)(Cl)C(F)(F)F (stereo not shown) [CTFPA]
Output line: 45400

###

System: male and female SD rats
assay.protocol: 14-day dose-range-finding oral gavage study
Assay type: in vivo, rat
measurement.context: both sexes, all doses

compound	Feed consumption
O=C(O)C(F)(Cl)C(F)(F)F (stereo not shown)	No effects
C=CC(=O)OCC(F)(F)C(F)(F)C(F)(F)C(F)(F)C(F)(F)C(F)(F)C(F)(F)C(F)F [PFNAC, 1H,1H,9H-Perfluorononyl acrylate]	No effects
CC(=O)C(F)(F)C(F)(F)C(F)(F)F	No effects

###

Test system: male and female Sprague–Dawley rats
assay.protocol: 90-day subchronic oral gavage toxicity study
Format: in vivo, rat
measurement.context: female
experimental.readout: NOEL, relative kidney weight increase

compound	val
C=CC(=O)OCC(F)(F)C(F)(F)C(F)(F)C(F)(F)C(F)(F)C(F)(F)C(F)(F)C(F)F [PFNAC, 1H,1H,9H-Perfluorononyl acrylate]	1 mg/kg-day
O=C(O)C(F)(Cl)C(F)(F)F (stereo not shown)	NR
CC(=O)C(F)(F)C(F)(F)C(F)(F)F	NR
FC(F)(F)C(F)(F)C(F)(F)C(F)(F)CCI [PFHI, 1H,1H,2H,2H-Perfluorohexyl iodide]	NR

###

Test system: male and female Sprague–Dawley rats
assay.protocol: 90-day subchronic oral gavage toxicity study
Type: in vivo, rat
Design: key: NR: no response, no statistically significant dose-dependent changes
measurement.context: female

molecule	LOEL, absolute kidney weight increase
CC(=O)C(F)(F)C(F)(F)C(F)(F)F [MHFPK, Methyl heptafluoropropyl ketone]	NR
FC(F)(F)C(F)(F)C(F)(F)C(F)(F)CCI [PFHI, 1H,1H,2H,2H-Perfluorohexyl iodide]	NR
C=CC(=O)OCC(F)(F)C(F)(F)C(F)(F)C(F)(F)C(F)(F)C(F)(F)C(F)(F)C(F)F [PFNAC, 1H,1H,9H-Perfluorononyl acrylate]	10 mg/kg-day
O=C(O)C(F)(Cl)C(F)(F)F (stereo not shown) [CTFPA]	NR

###

Tested on: male and female Sprague–Dawley rats
assay.protocol: 90-day subchronic oral gavage toxicity study
Format: in vivo, rat
measurement.context: male
experimental.readout: LOEL, absolute kidney weight increase (mg/kg-day)
Dear colleague, please return just the value in mg/kg-day, with no unit written.

Input line: Fill: LOEL, absolute kidney weight increase (male and female Sprague–Dawley rats) for this compound FC(F)(F)C(F)(F)C(F)(F)C(F)(F)CCI [PFHI, 1H,1H,2H,2H-Perfluorohexyl iodide]
Output line: 200

Input line: Fill: LOEL, absolute kidney weight increase (male and female Sprague–Dawley rats) for this compound C=CC(=O)OCC(F)(F)C(F)(F)C(F)(F)C(F)(F)C(F)(F)C(F)(F)C(F)(F)C(F)F [PFNAC, 1H,1H,9H-Perfluorononyl acrylate]
Output line: 0.3

###

assay.protocol: Parent chemical in rat plasma, 14-day study
Type: in vivo
measurement.context: Sprague-Dawley, rat, plasma, oral; female, Day 15, 300 mg/kg-day
experimental.readout: concentration at 15 day (µg/mL)
Dear colleague, please return just the value in µg/mL, with no unit written.

Input line: Provide measured concentration at 15 day value, entry: O=C(O)C(F)(Cl)C(F)(F)F (centres unmarked)
Output line: 123

Input line: Provide measured concentration at 15 day value, entry: FC(F)(F)C(F)(F)C(F)(F)C(F)(F)CCI [PFHI, 1H,1H,2H,2H-Perfluorohexyl iodide]
Output line: 0.0143

###

Test system: male and female Sprague–Dawley rats
assay.protocol: 90-day subchronic oral gavage toxicity study
Type: in vivo, rat
measurement.context: female
experimental.readout: NOEL, relative liver weight increase (mg/kg-day)
Dear colleague, please return just the value in mg/kg-day, with no unit written.

Input line: Provide measured NOEL, relative liver weight increase value, entry: O=C(O)C(F)(Cl)C(F)(F)F (stereo not shown) [CTFPA]
Output line: 12.5

Input line: Provide measured NOEL, relative liver weight increase value, entry: FC(F)(F)C(F)(F)C(F)(F)C(F)(F)CCI [PFHI, 1H,1H,2H,2H-Perfluorohexyl iodide]
Output line: 50

Input line: Provide measured NOEL, relative liver weight increase value, entry: C=CC(=O)OCC(F)(F)C(F)(F)C(F)(F)C(F)(F)C(F)(F)C(F)(F)C(F)(F)C(F)F [PFNAC, 1H,1H,9H-Perfluorononyl acrylate]
Output line: 10

###

System: male and female Sprague–Dawley rats
assay.protocol: 90-day subchronic oral gavage toxicity study
Format: in vivo, rat
measurement.context: female

compound	experimental.system	LOEL, relative kidney weight increase
C=CC(=O)OCC(F)(F)C(F)(F)C(F)(F)C(F)(F)C(F)(F)C(F)(F)C(F)(F)C(F)F [PFNAC, 1H,1H,9H-Perfluorononyl acrylate]	male and female Sprague–Dawley rats	3 mg/kg-day
O=C(O)C(F)(Cl)C(F)(F)F (stereo not shown) [CTFPA]	male and female Sprague–Dawley rats	NR
FC(F)(F)C(F)(F)C(F)(F)C(F)(F)CCI [PFHI, 1H,1H,2H,2H-Perfluorohexyl iodide]	male and female Sprague–Dawley rats	NR
CC(=O)C(F)(F)C(F)(F)C(F)(F)F [MHFPK, Methyl heptafluoropropyl ketone]	male and female Sprague–Dawley rats	NR

###

Test system: male and female SD rats
assay.protocol: 14-day dose-range-finding oral gavage study
Assay type: in vivo, rat
measurement.context: both sexes, all doses
experimental.readout: Bodyweight and bodyweight gain

compound	val
C=CC(=O)OCC(F)(F)C(F)(F)C(F)(F)C(F)(F)C(F)(F)C(F)(F)C(F)(F)C(F)F [PFNAC, 1H,1H,9H-Perfluorononyl acrylate]	No changes
O=C(O)C(F)(Cl)C(F)(F)F (stereo not shown)	No changes
FC(F)(F)C(F)(F)C(F)(F)C(F)(F)CCI [PFHI, 1H,1H,2H,2H-Perfluorohexyl iodide]	No changes
CC(=O)C(F)(F)C(F)(F)C(F)(F)F	No changes

###

Tested on: male and female Sprague–Dawley rats
assay.protocol: 90-day subchronic oral gavage toxicity study
Type: in vivo, rat
measurement.context: male
Exercise: state measured LOEL, absolute liver weight increase for each of the molecules provided.
Dear colleague, please return just the value in mg/kg-day, with no unit written.

Input line: Provide measured LOEL, absolute liver weight increase value, entry: C=CC(=O)OCC(F)(F)C(F)(F)C(F)(F)C(F)(F)C(F)(F)C(F)(F)C(F)(F)C(F)F [PFNAC, 1H,1H,9H-Perfluorononyl acrylate]
Output line: 0.3

Input line: Provide measured LOEL, absolute liver weight increase value, entry: FC(F)(F)C(F)(F)C(F)(F)C(F)(F)CCI [PFHI, 1H,1H,2H,2H-Perfluorohexyl iodide]
Output line: 100

Input line: Provide measured LOEL, absolute liver weight increase value, entry: O=C(O)C(F)(Cl)C(F)(F)F (stereo not shown)
Output line: 7.5

###

Tested on: male and female Sprague–Dawley rats
assay.protocol: 90-day subchronic oral gavage toxicity study
Format: in vivo, rat
measurement.context: female
Exercise: state measured NOEL, absolute liver weight increase for each of the compounds provided.
Dear colleague, please return just the value in mg/kg-day, with no unit written.

Input line: Fill: NOEL, absolute liver weight increase (male and female Sprague–Dawley rats) for this compound FC(F)(F)C(F)(F)C(F)(F)C(F)(F)CCI [PFHI, 1H,1H,2H,2H-Perfluorohexyl iodide]
Output line: 100

Input line: Fill: NOEL, absolute liver weight increase (male and female Sprague–Dawley rats) for this compound C=CC(=O)OCC(F)(F)C(F)(F)C(F)(F)C(F)(F)C(F)(F)C(F)(F)C(F)(F)C(F)F [PFNAC, 1H,1H,9H-Perfluorononyl acrylate]
Output line: 10

Input line: Fill: NOEL, absolute liver weight increase (male and female Sprague–Dawley rats) for this compound O=C(O)C(F)(Cl)C(F)(F)F (stereo not shown) [CTFPA]
Output line: 12.5

###

Tested on: male and female Sprague–Dawley rats
assay.protocol: 90-day subchronic oral gavage toxicity study
Format: in vivo, rat
measurement.context: male
experimental.readout: NOEL, absolute kidney weight increase (mg/kg-day)
Dear colleague, please return just the value in mg/kg-day, with no unit written.

Input line: Provide measured NOEL, absolute kidney weight increase value, entry: FC(F)(F)C(F)(F)C(F)(F)C(F)(F)CCI [PFHI, 1H,1H,2H,2H-Perfluorohexyl iodide]
Output line: 100

Input line: Provide measured NOEL, absolute kidney weight increase value, entry: C=CC(=O)OCC(F)(F)C(F)(F)C(F)(F)C(F)(F)C(F)(F)C(F)(F)C(F)(F)C(F)F [PFNAC, 1H,1H,9H-Perfluorononyl acrylate]
Output line: 0.1

###

assay.protocol: Solubility in dosing vehicles
Assay type: physicochemical
measurement.context: deionized water; stored refrigerated overnight; read-out: Solubility in deionized (DI) water
experimental.readout: solubility (mg/mL)
Dear colleague, please return just the value in mg/mL, with no unit written.

Input line: Provide measured solubility value, entry: O=C(O)C(F)(Cl)C(F)(F)F (stereo not shown)
Output line: 200
